tested on: HIV-1 IIIB strain, T-tropic (CXCR4 utilizing); experiment: HOS HIV-1 infectivity assay; assay type: cell-based; settings: Human immunodeficiency virus 1, IIIB; HOS HIV anti-infectivity assay; strain not named in Table 2; read-out: Activity Level
Catalogue of IC50 readings, one per entry.
REPORTED_PROPERTY: IC50

NCCCCN(Cc1cn2c(F)cccc2n1)C1CCCc2cccnc21 (centres unmarked) ... < 100 nM
NCCCCN(Cc1cn2cc(Cl)ccc2n1)C1CCCc2cccnc21 (centres unmarked) ... < 100 nM
NCCCCN(Cc1cn2cc(Cl)cc(Cl)c2n1)C1CCCc2cccnc21 (centres unmarked) ... 100 to 500 nM
NCCCCN(Cc1nc2ccccn2c1Cl)C1CCCc2cccnc21 (centres unmarked) ... < 100 nM
Cc1cc(C)n2cc(CN(CCCCN)C3CCCc4cccnc43)nc2c1 (centres unmarked) ... 100 to 500 nM
NCCCCN(Cc1cn2c(Br)cccc2n1)C1CCCc2cccnc21 (centres unmarked) ... < 100 nM
CN1CCN(c2cccc3nc(CN(Cc4cccnc4)[C@H]4CCCc5cccnc54)cn23)CC1 ... < 100 nM
CN1CCN(c2cccc3nc(CN(Cc4ccccn4)[C@H]4CCCc5cccnc54)cn23)CC1 ... 100 to 500 nM
